- Tested on: Escherichia coli EC-1: VOGEL, mouse virulent
- Experimental Protocol: MIC determination, EC-1
- Type: cell-based
- Particulars: Escherichia coli, read-out: EC-1 (MIC), Table 2, lower of duplicate values
Quantity Kind: MIC

IN: Form field: reported MIC of C[C@@](CCn1cc(F)c(-c2ccc(-n3ncnn3)cc2)cc1=O)(C(=O)NO)S(C)(=O)=O
OUT: > 64 µg/mL

IN: Form field: reported MIC of COc1cnn(-c2ccc(-c3cc(=O)n(CC[C@](C)(C(=O)NO)S(C)(=O)=O)cc3F)cc2)n1
OUT: ≤ 0.06 µg/mL

IN: Form field: reported MIC of COc1ccc(-c2ccc(-c3cc(=O)n(CC[C@](C)(C(=O)NO)S(C)(=O)=O)cc3F)cc2)cn1
OUT: ≤ 0.06 µg/mL
